Data origin: ChEMBL document CHEMBL4665749

# assay-system: Tyrosyl-DNA phosphodiesterase 1 (Homo sapiens, UniProt Q9NUW8)
# Sequence (Q9NUW8 whole entry): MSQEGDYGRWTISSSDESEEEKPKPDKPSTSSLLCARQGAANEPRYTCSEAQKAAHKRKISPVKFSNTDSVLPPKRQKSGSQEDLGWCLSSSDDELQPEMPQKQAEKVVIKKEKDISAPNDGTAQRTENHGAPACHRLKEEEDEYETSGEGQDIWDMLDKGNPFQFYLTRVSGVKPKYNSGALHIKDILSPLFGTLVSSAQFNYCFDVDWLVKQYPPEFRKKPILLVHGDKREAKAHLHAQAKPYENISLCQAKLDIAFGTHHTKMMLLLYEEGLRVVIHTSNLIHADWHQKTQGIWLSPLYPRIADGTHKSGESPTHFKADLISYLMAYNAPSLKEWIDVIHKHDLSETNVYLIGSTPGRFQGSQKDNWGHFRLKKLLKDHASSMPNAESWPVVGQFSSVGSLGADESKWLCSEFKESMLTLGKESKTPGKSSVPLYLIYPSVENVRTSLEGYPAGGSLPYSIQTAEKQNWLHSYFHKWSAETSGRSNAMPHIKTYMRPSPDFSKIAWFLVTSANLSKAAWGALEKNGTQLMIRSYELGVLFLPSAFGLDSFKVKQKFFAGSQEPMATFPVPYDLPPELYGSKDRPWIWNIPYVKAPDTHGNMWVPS
# experimental-protocol: Inhibition of recombinant TDP1 (unknown origin) expressed in Escherichia coli using 5'-FAM/3'-BHQ1 tagged oligonucleotide as substrate by fluorescence assay
attribute-measured: IC50 (nM)

C=C(C)[C@H]1CC=C(/C=N\Nc2nc(-c3c(O)c(C)c(O)c4c3OC3=CC(O)=C(C(C)=O)C(=O)[C@@]34C)cs2)CC1 | 27

A. CC(=O)C1=C(O)C=C2Oc3c(-c4csc(NN=C5C=C(C)[C@H]6C[C@@H]5C6(C)C)n4)c(O)c(C)c(O)c3[C@@]2(C)C1=O (mixture of isomers)
B. CC(=O)C1=C(O)C=C2Oc3c(-c4csc(NN=CCC(C)CCC=C(C)C)n4)c(O)c(C)c(O)c3[C@@]2(C)C1=O (stereo partly drawn)
Choose between A and B : whose measured IC50 value is numerically larger? API: response body contains the label of the selected item.
A
(A: 46 nM, B: 16.4 nM)
